# Test system: IGROV1 ovarian
# Measurement Notes: NCI-60 one-dose screen, 48 h (100 = growth as untreated, 0 = no growth, -100 = all killed)
# Condition Set: 10 µM
This is part of a sample that, as a whole, favours compounds with a hit. Of some 83,000 tested, about 20% had one in any assay.
Label satisfied when growth >= 70%; otherwise not satisfied.

query: Form field: growth at least 70%? Entry: "COc1cc(/C=C\c2cc(OC)c(OC)c(OC)c2)cc(N/C=C\C(=O)c2ccc(OC(F)(F)F)cc2)c1OC"
result: not satisfied

query: Could you verify whether the entry CCOc1c(Cl)cc(CNC(C)C(O)c2ccccc2)cc1OC (stereo not given) shows growth of no less than 70%?
result: not satisfied

query: Is it the case that CC(C)C1c2ccc(O)cc2Oc2nc(N)c(C#N)c(N)c21 (stereo not given) has growth reaching or exceeding 70%?
result: satisfied

query: # bool: growth of OC1CCCCC1N1CCC(c2ccccc2)CC1 (stereo not given) >= 70%
result: satisfied

query: Dear colleague, could you confirm whether O=S(=O)(Cl)c1ccccc1 (tested in a mixture with another compound) has growth at or above 70%?
result: satisfied

query: Determine whether measured growth meets or exceeds 70% for Cc1ccc(N)cc1[As]=[As]c1cc(N)ccc1C (stereo not given)
result: not satisfied

query: Does the reported growth for COc1c(O)c2c3c(c1OC)-c1ccccc1CC3N(C)CC2 (stereo not given) fall at or above the 70% mark?
result: satisfied

query: I'd appreciate it if you could say whether COc1cc2c(cc1OC)CN(C)C(C)C2 (stereo not given) has growth at least equal to 70%.
result: satisfied

query: Decide: growth of "C/C1=C/C(=O)O[C@@H]2C[C@@H](CC[C@H](C)/C=C\C=C\CC1)O[C@@](OCCc1ccccc1)([C@@H]1CSC(=O)N1)C2" >= 70%?
result: not satisfied

query: Hello, I need to know if "CCOc1cc(/C=N\Nc2nnc(C)n2N)c(C)cc1N(CCCl)CCCl" has measured growth not below 70%. Thanks!
result: not satisfied

query: Please indicate if the recorded growth for "COc1ccc(/C=C(/C(=O)N2CCCC2)c2cc(OC)c(OC)c(OC)c2)cc1N" meets or exceeds 70%.
result: not satisfied

query: Is growth for "O=c1cc[nH]c(=O)o1" at or above 70%?
result: satisfied

query: Hi, just wondering whether "CC(C)(NC(=O)c1nn(CCCCCF)c2ccccc12)c1ccccc1" shows growth of 70% or higher.
result: satisfied

query: Check if growth >= 70% (inclusive). Item: "COc1ccc(OC)c(/C=C(/C)[N+](=O)[O-])c1"
result: not satisfied
